Test system: Plasmodium falciparum
Assay Procedure: NOVARTIS: Inhibition of Plasmodium falciparum 3D7 (drug-susceptible) proliferation in erythrocyte-based infection assay
Assay type: functional, organism-based
Condition Parameters: Plasmodium falciparum, 3D7
Quick list: EC50 per entry.

Below, 2 compounds whose answers are already recorded.
| Compound | EC50 |
| --- | --- |
| O=C(CCl)NCCOc1ccc(Cl)cc1Cl | 0.538 µM |
| Cc1ccc(Cn2c(N3CCC(C(=O)NCc4ccc(F)cc4)CC3)nc3ccccc32)cc1 | > 7.51 µM |

(Q) Item COc1cc(NC(C)CCCN(Cc2ccc(Cl)cc2)C(=O)Nc2ccc(Br)cc2)c2ncccc2c1 (stereo not given) has what recorded EC50?
(A) > 1.25 µM

(Q) Next compound: COc1ccc(Cl)cc1NC(=O)CSC1=C(C#N)C(c2ccccc2)C(C(=O)Nc2ccccc2)=C(C)N1 (stereo not given)
(A) 3.76 µM

(Q) Next compound: `CCCc1ccc(C(=O)NC(=O)c2ccccc2O)cc1`
(A) 0.193 µM

---

Assay Procedure: NOVARTIS: Cytotoxicity against human hepatocellular carcinoma cell line (Huh7)
Type: toxicity, cell-based, Huh-7
Condition Parameters: Huh7 cells (hepatocellular carcinoma cell line)
Square brackets hold non-standard residues; d marks the D form. Peptide text beside a SMILES is read from it. * marks the point of attachment. NHCH2CH2OH = OCCN*; For = O=C*
Property Label: CC50

Below, 2 compounds whose answers are already recorded.
| Compound | Property Label | Val |
| --- | --- | --- |
| CCc1ccc(C(=O)Oc2ccccc2-c2nc3ccccn3c2NC(C)(C)CC(C)(C)C)cc1 | CC50 | > 10 µM |
| Cc1ccccc1NC(=S)NC(Cc1ccccc1)c1ccccc1 (stereo unspecified) | CC50 | > 10 µM |

(Q) Item CC(C)C[C@@H](NC(=O)[C@H](C)NC(=O)CNC(=O)[C@@H](NC=O)C(C)C)C(=O)N[C@@H](C)C(=O)N[C@@H](C(=O)N[C@H](C(=O)N[C@@H](C(=O)N[C@@H](Cc1c[nH]c2ccccc12)C(=O)N[C@H](CC(C)C)C(=O)N[C@@H](Cc1c[nH]c2ccccc12)C(=O)N[C@H](CC(C)C)C(=O)N[C@@H](Cc1c[nH]c2ccccc12)C(=O)N[C@H](CC(C)C)C(=O)N[C@@H](Cc1c[nH]c2ccccc12)C(=O)NCCO)C(C)C)C(C)C)C(C)C (For-VGA[dL]A[dV]V[dV]W[dL]W[dL]W[dL]W-NHCH2CH2OH) has what recorded CC50?
(A) 98.8 µM

(Q) Next compound: `C=CCc1c(C)nc2ccc(Br)cc2c1O`
(A) > 100 µM

(Q) Next compound: OC(CN1CCOCC1)Cn1c2ccc(Br)cc2c2cc(Br)ccc21 (stereo unspecified)
(A) 47.5 µM

(Q) Next compound: `CC(C)CNC(=O)c1cnc(NCCCn2ccnc2)nc1NCC1CCCCC1`
(A) > 10 µM

---

System: Plasmodium falciparum
Assay Procedure: NOVARTIS: Inhibition of Plasmodium falciparum 3D7 (drug-susceptible) proliferation in erythrocyte-based infection assay
Assay type: functional, organism-based
Condition Parameters: Plasmodium falciparum, 3D7
Property Label: pEC50
API: returns pEC50 as number; meaning -log10 of concentration in mol/L.

| Compound | Measurement Target | pEC50 |
| --- | --- | --- |
| COc1ccc(C=Cc2cc[n+](C)cc2)cc1OC | Plasmodium falciparum | 5.74 |
| COc1cc(NC(C)CCCN(Cc2ccc(Cl)cc2)C(=O)C(C)C)c2ncccc2c1 (stereo not given) | Plasmodium falciparum | 5.77 |
| COc1ccc(C2CC(=O)C3=C(C2)NC(C)=C(C(=O)OC2CCCCC2)C3c2cccc(C)c2)cc1OC (stereo not given) | Plasmodium falciparum | 6.08 |
| CC(C)c1cccc(C(C)C)c1NC(=O)N(Cc1ccccc1)C(C)c1nc2ccccc2c(=O)n1-c1ccccc1 (stereo not given) | Plasmodium falciparum | 5.88 |
| Cc1ccc2c(c1)N(CC(=O)NC1CCCCC1C)C(=O)CO2 (stereo not given) | Plasmodium falciparum | 5.70 |
| Cc1nc2ccc(-c3ccc4nc(C)[nH]c4c3)cc2[nH]1 | Plasmodium falciparum | 5.68 |

(Q) Item `CC(C)Cc1nc(N2CCOCC2)c2nnn(Cc3ccccc3)c2n1` has what recorded pEC50?
(A) 5.52

(Q) Next compound: CC(C)CN1C(=O)c2ccccc2C(C(=O)Nc2ccc(F)cc2F)C1c1cccs1 (stereo not given)
(A) 6.66
